Reported values of GI50 for individual entries
# Tested on: SN12C
# assay comment: NCI tumour cell line growth inhibition, 48 h
Activity calls are given as the source filed them. Rule as the data show it: active = GI50 up to about 1.1 µM and inactive = higher.

Known results for compounds:
COc1ccc(C(CCC(C)=O)C(=O)O)cc1OC (stereo not given) = > 100 µM (inactive)
COS(=O)(=O)OCCC(NC(=O)OCc1ccccc1)C(=O)OCc1ccccc1 (stereo not given) = > 100 µM (inactive)
O=C1NC(=O)/C(=C/c2ccc(S(=O)(=O)N/N=C/c3ccc(Cl)cc3)cc2)N1 = > 100 µM (inactive)
Fc1ccc2c(c1)nc1n2C(c2c(F)cccc2F)SC1 (stereo not given) = 70.8 µM (inactive)
C=C1C(=O)O[C@H]2/C=C(/C)C3=CC(=O)[C@@](C)(C[C@@H](OC(=O)/C(C)=C\C)C12)O3 (stereo not given in full) = 1.36 µM (inactive)
CCCCc1c2c(nc3c1CC/C(=C\c1ccccc1)C3=O)CCCC2 = 3.18 µM (inactive)
Nc1c(C(=O)O)c2ccc([N+](=O)[O-])cc2c(=O)n1-c1nc2ccccc2s1 = > 100 µM (inactive)
O=[N+]([O-])/C(C(Cl)=C(Cl)Cl)=C(\Nc1cccc2ccccc12)Sc1ccccc1 = 20.2 µM (inactive)

input: Can you look up the measured GI50 of COC(=O)c1cccc(N[C@@H]2c3cc4c(cc3C(c3cc(OC)c(O)c(OC)c3)[C@H]3C(=O)OCC32)OCO4)c1 (stereo not given in full) for me?
output: 1.45 µM (inactive)

input: Can you look up the measured GI50 of CN1CC=C(C#CC(C)(C)O)CC1 for me?
output: > 37.5 µM (inactive)
